Values were extracted from patent US20260132197A1.

target: T1, wild type human CD47 (Acro Biosystems, cat. no. CD7-H5227) (human, UniProt Q08722 19-139); test: SPR, IgG captured, CD47 in flow; exp 3;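 note: other target is a CD47 mutein carrying C33G, used to obtain true monovalent affinity, with kon and koff fitted from SPR binding curves and KD derived from both rates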
T1 construct: Bought protein used as SPR analyte; also called Human CD47 wt; wild-type CD47
T1 sequence (Q08722 19-139 limits assumed): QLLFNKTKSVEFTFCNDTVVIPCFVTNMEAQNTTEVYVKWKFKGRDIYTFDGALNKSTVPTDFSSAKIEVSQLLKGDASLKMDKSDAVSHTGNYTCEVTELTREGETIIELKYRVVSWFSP
pKd: −log10 of the molar value.

binder	pKd
108VH10.Ml / 108VL10.Me (antibody, V domains shown, 4D5-framework series; constant regions not restated for this series; also called VH10.Ml VL10.Me) VH: EVQLVESGGGLVQPGGSLRLSCAASGFTFSHHWIHWVRQAPGKGLEWVAMIDASDSETRLSQKFKGRFTISADTSKNTAYLQMNSLRAEDTAVYYCSRLGRYYFDYWGQGTLVTVSS VL: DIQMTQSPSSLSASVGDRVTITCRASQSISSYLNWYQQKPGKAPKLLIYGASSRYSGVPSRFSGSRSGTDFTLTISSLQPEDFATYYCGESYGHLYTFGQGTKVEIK	8.25
108VH10.Mi / 108VL10.Me (antibody, V domains shown, 4D5-framework series; constant regions not restated for this series; also called VH10.Mi VL10.Me) VH: EVQLVESGGGLVQPGGSLRLSCAASGFTFSHHWIHWVRQAPGKGLEWVAMIDASDSETRLSDKFKDRFTISADTSKNTAYLQMNSLRAEDTAVYYCSRLGRYYFDYWGQGTLVTVSS VL: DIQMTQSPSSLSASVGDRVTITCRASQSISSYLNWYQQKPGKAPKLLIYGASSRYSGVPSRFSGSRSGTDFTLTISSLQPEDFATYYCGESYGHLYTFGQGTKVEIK	8.28
108VH10 / 108VL10.M1 (antibody, V domains shown, 4D5-framework series; also called VH10 VL10.M1; straight-graft antibody) VH: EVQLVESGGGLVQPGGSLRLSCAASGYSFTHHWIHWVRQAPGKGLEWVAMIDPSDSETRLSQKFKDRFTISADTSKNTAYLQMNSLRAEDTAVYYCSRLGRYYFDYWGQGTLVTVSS VL: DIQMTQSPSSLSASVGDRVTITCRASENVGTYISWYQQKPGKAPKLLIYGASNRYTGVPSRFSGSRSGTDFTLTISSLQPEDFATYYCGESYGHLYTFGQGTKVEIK	8.21
chimeric antibody 108C10A6 (antibody, V domains shown, Chimeric antibody with mouse variable domains; captured through human Fc; also called VH / VL) VH: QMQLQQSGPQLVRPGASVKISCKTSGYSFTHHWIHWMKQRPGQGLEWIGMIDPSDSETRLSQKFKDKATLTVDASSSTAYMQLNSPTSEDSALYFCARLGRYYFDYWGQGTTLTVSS VL: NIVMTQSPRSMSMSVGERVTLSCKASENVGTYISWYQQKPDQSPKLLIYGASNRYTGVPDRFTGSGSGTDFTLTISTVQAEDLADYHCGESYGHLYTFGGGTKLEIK	9.70
